target: T1, cMetECDHis (human, UniProt P08581 25-932, limits assumed, biotinylated in the cross-block ELISA of Example 17); experiment: cross-block ELISA; competitor 006
T1 construct: Expressed in HEK-293F cells; also called soluble cMetECDHis; biotinylated cMetECDHis
Documented residual binding, % of no competitor across a set of binders
Readout type: residual binding, % of no competitor (%)

>  <Binder>
IgG1-1016-022 (antibody, V domains shown, also called TH1016-022; PC1016-022) VH: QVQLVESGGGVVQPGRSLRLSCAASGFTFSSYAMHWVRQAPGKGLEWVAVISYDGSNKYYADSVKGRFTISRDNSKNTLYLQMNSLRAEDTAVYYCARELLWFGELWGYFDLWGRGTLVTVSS VL: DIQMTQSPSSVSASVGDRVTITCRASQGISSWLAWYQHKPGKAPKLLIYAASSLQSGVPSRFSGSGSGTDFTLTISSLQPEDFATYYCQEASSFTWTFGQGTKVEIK

>  <Recorded measurement>
60.5

$$$$
>  <Binder>
IgG1-1016-069 (antibody, V domains shown, also called clone 069; TH1016-069) VH: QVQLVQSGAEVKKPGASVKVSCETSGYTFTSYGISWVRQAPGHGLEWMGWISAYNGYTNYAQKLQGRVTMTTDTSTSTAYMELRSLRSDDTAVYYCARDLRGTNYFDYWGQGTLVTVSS VL: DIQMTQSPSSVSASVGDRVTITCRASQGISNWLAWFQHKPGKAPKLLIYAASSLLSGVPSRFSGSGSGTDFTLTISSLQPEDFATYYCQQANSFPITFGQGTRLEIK

>  <Recorded measurement>
100

$$$$
>  <Binder>
anti-c-Met HuMab 006 (IgG1) (antibody, V domains shown, also called TH1016-006; PC1016-006) VH: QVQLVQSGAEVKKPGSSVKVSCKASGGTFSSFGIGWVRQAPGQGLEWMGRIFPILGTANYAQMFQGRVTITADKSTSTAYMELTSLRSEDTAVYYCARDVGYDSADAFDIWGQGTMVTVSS VL: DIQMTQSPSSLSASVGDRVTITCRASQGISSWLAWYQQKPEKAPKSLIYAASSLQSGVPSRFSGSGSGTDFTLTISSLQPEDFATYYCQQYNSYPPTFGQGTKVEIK

>  <Recorded measurement>
14.6

$$$$
